# experimental-system: AnImdA Tyr411 substituted with Phe (Aspergillus nidulans, UniProt C8V6R6, Y186F)
# method-description: MPA inhibition of AnImdA variant 411*
measured-quantity: pIC50
pIC50 here is simply -log10 of the concentration when that concentration is written in mol/L.

For `COc1c(C)c2c(c(O)c1C/C=C(\C)CCC(=O)O)C(=O)OC2` , what is its reported pIC50?
7.59

----------
# experimental-system: PcIMPDH-A (IMPDH-A from Penicillium chrysogenum) (Penicillium chrysogenum, UniProt B6HC24)
measured-quantity: IC50 (nM)
Express the result in nM but write the number alone.

Which IC50 is reported with PcIMPDH-A (IMPDH-A from Penicillium chrysogenum) (Penicillium chrysogenum, UniProt B6HC24) for this entry: `COc1c(C)c2c(c(O)c1C/C=C(\C)CCC(=O)O)C(=O)OC2` ?
36

----------
# experimental-system: PbIMPDH-B Phe411 substituted with Tyr (Penicillium brevicompactum, UniProt F1DBB2, F415Y)
# Sequence (F1DBB2 whole entry F415Y): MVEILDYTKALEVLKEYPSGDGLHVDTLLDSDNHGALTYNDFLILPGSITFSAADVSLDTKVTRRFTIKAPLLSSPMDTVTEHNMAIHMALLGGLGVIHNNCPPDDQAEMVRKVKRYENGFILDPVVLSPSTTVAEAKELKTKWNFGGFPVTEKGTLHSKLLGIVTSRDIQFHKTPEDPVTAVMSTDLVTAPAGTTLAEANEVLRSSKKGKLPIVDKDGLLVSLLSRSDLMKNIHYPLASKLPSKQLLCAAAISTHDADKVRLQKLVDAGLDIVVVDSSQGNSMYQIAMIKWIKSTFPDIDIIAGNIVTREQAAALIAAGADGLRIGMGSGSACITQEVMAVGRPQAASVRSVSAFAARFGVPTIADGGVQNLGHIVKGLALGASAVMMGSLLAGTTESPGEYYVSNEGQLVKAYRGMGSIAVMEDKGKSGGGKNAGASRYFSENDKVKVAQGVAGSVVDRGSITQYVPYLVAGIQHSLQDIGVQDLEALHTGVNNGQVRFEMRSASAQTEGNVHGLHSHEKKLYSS
# method-description: MPA inhibition of PbIMPDH-B variant 411*
measured-quantity: IC50

For `COc1c(C)c2c(c(O)c1C/C=C(\C)CCC(=O)O)C(=O)OC2` , what is its reported IC50?
25 µM

----------
# experimental-system: UniProtKB F1DBB2
measured-quantity: IC50 (µM)
Express the result in µM but write the number alone.

For COc1c(C)c2c(c(O)c1C/C=C(\C)CCC(=O)O)C(=O)OC2 [MPA, mycophenolic acid] , what is its reported IC50?
27
